- ASSAY NAME: self-splicing fitness, log relative to wild type (ln ratio); higher = more splicing; Tetrahymena group I intron in knt gene, E. coli kanamycin selection, DiMSum; sequences stand for … in CUCUCU…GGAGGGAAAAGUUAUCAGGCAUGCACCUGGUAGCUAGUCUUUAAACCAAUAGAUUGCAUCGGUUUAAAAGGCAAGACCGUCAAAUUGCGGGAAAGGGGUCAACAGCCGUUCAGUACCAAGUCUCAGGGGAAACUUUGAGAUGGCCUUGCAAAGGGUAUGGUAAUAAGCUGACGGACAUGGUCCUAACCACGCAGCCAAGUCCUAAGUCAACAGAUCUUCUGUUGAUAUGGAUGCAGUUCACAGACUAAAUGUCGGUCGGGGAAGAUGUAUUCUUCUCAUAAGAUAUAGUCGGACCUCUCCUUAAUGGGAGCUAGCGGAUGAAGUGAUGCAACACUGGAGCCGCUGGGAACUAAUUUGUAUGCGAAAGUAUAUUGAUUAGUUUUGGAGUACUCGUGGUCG;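 note: selection with 25 µg/mL kanamycin versus none on LB agar overnight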
- EXPERIMENTAL SETUP: 30 °C
For each entry below, report its self-splicing fitness (ln) value.
I'd appreciate a reply containing only the number, no unit.

I have this sequence here, CAUGAGCAAUAUUACGUCAC , and I need its recorded self-splicing fitness (ln). -3.36

Bench note: what self-splicing fitness (ln) did GGUUAGCAAUAUUACGAUCG show? -0.314

Endpoint output: self-splicing fitness (ln) of CCUUAGCAAUAUUACGUAGA . Value? -4.13

// query self-splicing fitness (ln) value for entry UGUUAGCAAUAUUACGCGGG -2.74

self-splicing fitness (ln) lookup needed for CAACAGCAAUAUUACGUUAC , thanks. -3.99

Could you share which self-splicing fitness (ln) value was measured for CUAGAGCAAUAUUACGAUCG ? 0.45

What self-splicing fitness (ln) value was documented for this sequence, CUGAAGCAAUAUUACGUAGA ? -4.28

Query (sequence): AACGAGCAAUAUUACGUGGA ; field requested: self-splicing fitness (ln) -2.62

Query: self-splicing fitness (ln); subject: CGAUAGCAAUAUUACGAGGG -2.4

What self-splicing fitness (ln) value was documented for this sequence, UGUGAGCAAUAUUACGACGG ? -1.3

Record request: self-splicing fitness (ln) value, item UGUAAGCAAUAUUACGUCUG -0.606

Recorded self-splicing fitness (ln) for UGCAAGCAAUAUUACGUGUA , please? -1.96

What does the data say about its self-splicing fitness (ln)? Entry: GACUAGCAAUAUUACGAUAC -1.31

Entry CCUUAGCAAUAUUACGACGC has what self-splicing fitness (ln)? -3.94

# get_value(readout='self-splicing fitness (ln)', item= AAUGAGCAAUAUUACGUUAA ) -2.76

# lookup: self-splicing fitness (ln) of CGAGAGCAAUAUUACGGUUU -3.15

Using the record for UGGGAGCAAUAUUACGGUUG , report its self-splicing fitness (ln). -2.07

Can you look up the measured self-splicing fitness (ln) of UUGAAGCAAUAUUACGAGAC for me? -3.37

Suppose we examine the sequence CCUGAGCAAUAUUACGACUG ; what self-splicing fitness (ln) value has been reported? -1.38

Value lookup for self-splicing fitness (ln); key = AUAAAGCAAUAUUACGCGCU -0.372

Tell me the measured self-splicing fitness (ln) of UUAUAGCAAUAUUACGAAGC , please. -2.27

Entry ACCCAGCAAUAUUACGGUUC has what self-splicing fitness (ln)? -2.22

I'd like to know its self-splicing fitness (ln). The sequence in question is GCUCAGCAAUAUUACGACGC -0.319

// returns reported self-splicing fitness (ln) for input CCAUAGCAAUAUUACGGAGU -4

Fill in the blank: the reported self-splicing fitness (ln) of ACGAAGCAAUAUUACGCCGA is ____. -0.564

Need self-splicing fitness (ln), item ACGGAGCAAUAUUACGGGAC -2.93

Request the reported self-splicing fitness (ln) associated with UCACAGCAAUAUUACGGGUA -1.93

Param item = CUUAAGCAAUAUUACGAUAG ; retrieve measured self-splicing fitness (ln). -2.01

If you can, please state the reported self-splicing fitness (ln) value of CGUAAGCAAUAUUACGCGGA . -3.23

Item under review: UCGGAGCAAUAUUACGGCUC . Reported self-splicing fitness (ln)? -1.81

Which measured self-splicing fitness (ln) value corresponds to AGCCAGCAAUAUUACGAUAA ? -4.66

Which self-splicing fitness (ln) value belongs to UCAAAGCAAUAUUACGUCCG ? -0.781

Fill blank: measured self-splicing fitness (ln) of the sequence CCUCAGCAAUAUUACGGUGC is ____. -2.28

Dear colleague, I am looking for the recorded self-splicing fitness (ln) of the following sequence: CUGGAGCAAUAUUACGUGGG -3.7
